Molecular target: T1, orthogonal hCD122 receptor (hoRb), hCD122 with H133D and Y134F (human, UniProt P14784 27-550)
T1 sequence: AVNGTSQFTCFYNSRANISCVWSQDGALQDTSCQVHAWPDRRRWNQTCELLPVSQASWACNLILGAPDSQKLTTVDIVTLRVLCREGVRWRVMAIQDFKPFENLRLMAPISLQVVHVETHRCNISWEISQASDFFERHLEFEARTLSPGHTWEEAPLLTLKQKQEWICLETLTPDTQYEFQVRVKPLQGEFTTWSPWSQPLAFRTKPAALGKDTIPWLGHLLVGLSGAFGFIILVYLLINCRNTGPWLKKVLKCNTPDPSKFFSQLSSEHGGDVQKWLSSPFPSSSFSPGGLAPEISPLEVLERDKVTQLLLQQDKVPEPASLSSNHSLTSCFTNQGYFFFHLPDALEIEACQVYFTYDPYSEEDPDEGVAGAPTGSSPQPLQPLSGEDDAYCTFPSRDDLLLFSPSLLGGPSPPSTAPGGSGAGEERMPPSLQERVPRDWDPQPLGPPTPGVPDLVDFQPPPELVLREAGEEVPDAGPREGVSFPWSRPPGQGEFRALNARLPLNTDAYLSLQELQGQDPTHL
Test: cell-based or functional assay
metric name: 3F8 Ortho Proliferation Signal 1:10 (cts/min)

The examples below pair each entry with its known result.
ΔT3, SQVLKA (ligand) APSSSTKKTQLQLSQLLVLLKAILNGINNYKNPKLTRMLTFKFYMPKKATELKHLQCLEEELKPLEEVLNLAQSKNFHLRPRDLISNINVIVLELKGSETTFMCEYADETATIVEFLNRWITFCQSIISTLT : 34800
ΔR81, SQVLKA (ligand) APTSSSTKKTQLQLSQLLVLLKAILNGINNYKNPKLTRMLTFKFYMPKKATELKHLQCLEEELKPLEEVLNLAQSKNFHLPRDLISNINVIVLELKGSETTFMCEYADETATIVEFLNRWITFCQSIISTLT : 32200

a: SQVLNA (ligand) APTSSSTKKTQLQLSQLLVLLNAILNGINNYKNPKLTRMLTFKFYMPKKATELKHLQCLEEELKPLEEVLNLAQSKNFHLRPRDLISNINVIVLELKGSETTFMCEYADETATIVEFLNRWITFCQSIISTLT
b: L18Q, SQVLKA (ligand) APTSSSTKKTQLQLSQLQVLLKAILNGINNYKNPKLTRMLTFKFYMPKKATELKHLQCLEEELKPLEEVLNLAQSKNFHLRPRDLISNINVIVLELKGSETTFMCEYADETATIVEFLNRWITFCQSIISTLT
Among a and b , which shows a numerically higher 3F8 Ortho Proliferation Signal 1:10 result? API: response body contains the label of the selected item.
b
(b: 57200 cts/min, a: 35100 cts/min)

Source listed as patent US20210196796A1.
